target.of.assay: Type-1 angiotensin II receptor (Bos taurus, UniProt P25104)
assay.summary: Displacement of [125I]angiotensin 2 from type-1 angiotensin 2 receptor in Bos taurus (bovine) adrenal cortical membrane
assay.conditions: read-out: IC50
pIC50: −log10 of the molar value.
Kindly return TRUE if reported pIC50 is no lower than 6; return FALSE if it is lower.

Solved entries (count: 5):
CCCCc1nc2ccc(Cl)cc2n1Cc1ccc(-c2ccccc2-c2nn[nH]n2)cc1 | FALSE
CCCCc1nc2ccc(C)c(C(=O)O)c2n1Cc1ccc(-c2ccccc2-c2nn[nH]n2)cc1 | TRUE
CCCCc1nc2cccc(CC(=O)O)c2n1Cc1ccc(-c2ccccc2-c2nn[nH]n2)cc1 | FALSE
CCCCc1nc2cc(Cl)cc(C(=O)OC)c2n1Cc1ccc(-c2ccccc2-c2nn[nH]n2)cc1 | TRUE
CCCCc1nc2cccc(C(=O)O)c2n1Cc1ccc(-c2ccccc2-c2nnnn2C)cc1 | FALSE

Problem: Confirm if pIC50 reported for the compound "CCCCc1nc2ccc(C(=O)O)cc2n1Cc1ccc(-c2ccccc2-c2nn[nH]n2)cc1" is 6 or above.
Solution: FALSE

Problem: Confirm if pIC50 reported for the compound "CCCCc1nc2cccc(CO)c2n1Cc1ccc(-c2ccccc2-c2nn[nH]n2)cc1" is 6 or above.
Solution: TRUE

Problem: Confirm if pIC50 reported for the compound "CCCCc1nc2cccc(CN(C)C)c2n1Cc1ccc(-c2ccccc2-c2nn[nH]n2)cc1" is 6 or above.
Solution: FALSE

Problem: Confirm if pIC50 reported for the compound "CCCCc1nc2c(C(=O)OC)cccc2n1Cc1ccc(-c2ccccc2-c2nn[nH]n2)cc1" is 6 or above.
Solution: FALSE

Problem: Confirm if pIC50 reported for the compound "CCCCc1nc2cc(C(=O)O)ccc2n1Cc1ccc(-c2ccccc2-c2nn[nH]n2)cc1" is 6 or above.
Solution: FALSE

---

target.of.assay: Type-1 angiotensin II receptor (Bos taurus)
assay.summary: Displacement of [125I]angiotensin 2 from type-1 angiotensin 2 receptor in Bos taurus (bovine) adrenal cortical membrane
assay.conditions: read-out: pIC50 (converted)
readout.label: IC50 (µM)
Answers are plain numbers, in µM.

CCCCc1nc2ccccc2n1Cc1ccc(-c2ccccc2C(=O)O)cc1 | 0.11
CCCCc1nc2cc(C(=O)O)ccc2n1Cc1ccc(-c2ccccc2-c2nn[nH]n2)cc1 | 5.62
CCCCc1nc2ccc(C)c(C(=O)O)c2n1Cc1ccc(-c2ccccc2-c2nn[nH]n2)cc1 | 0.328
CCCCc1nc2cccc(CC(=O)O)c2n1Cc1ccc(-c2ccccc2-c2nn[nH]n2)cc1 | 2.82

The value of IC50 measured for the molecule "CCCCOC(=O)c1cccc2nc(CCCC)n(Cc3ccc(-c4ccccc4-c4nn[nH]n4)cc3)c12" turned out to be 1.3

---

target.of.assay: Type-1 angiotensin II receptor (Bos taurus, UniProt P25104)
Sequence (P25104 whole entry): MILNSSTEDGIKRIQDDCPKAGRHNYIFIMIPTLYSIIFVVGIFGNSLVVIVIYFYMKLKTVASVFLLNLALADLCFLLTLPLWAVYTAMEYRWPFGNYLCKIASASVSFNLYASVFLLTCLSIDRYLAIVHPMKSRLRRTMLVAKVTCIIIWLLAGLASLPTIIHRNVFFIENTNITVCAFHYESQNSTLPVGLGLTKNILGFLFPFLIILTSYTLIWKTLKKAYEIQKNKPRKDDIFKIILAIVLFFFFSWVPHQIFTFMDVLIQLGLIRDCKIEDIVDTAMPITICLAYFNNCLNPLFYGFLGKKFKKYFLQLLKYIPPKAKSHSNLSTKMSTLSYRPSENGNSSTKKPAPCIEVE
assay.summary: Displacement of [125I]angiotensin 2 from type-1 angiotensin 2 receptor in Bos taurus (bovine) adrenal cortical membrane
assay.conditions: read-out: IC50
readout.label: pIC50
Give bare numbers, as −log10 of the molar value.

Take a look at these entries with their results.
CCCCc1nc2ccccc2n1Cc1ccc(-c2ccccc2-c2nn[nH]n2)cc1 | 6.05
CCCCc1nc2cc(Cl)ccc2n1Cc1ccc(-c2ccccc2-c2nn[nH]n2)cc1 | 5.82
CCCCOC(=O)c1cccc2nc(CCCC)n(Cc3ccc(-c4ccccc4-c4nn[nH]n4)cc3)c12 | 5.92
CCCCc1nc2cccc(C(=O)OCC)c2n1Cc1ccc(-c2ccccc2-c2nn[nH]n2)cc1 | 5.85
CCCCc1nc2cccc(C(=O)O)c2n1Cc1ccc(-c2ccccc2C(=O)O)cc1 | 6.18
CCCCc1nc2ccc(C)c(C(=O)OCC)c2n1Cc1ccc(-c2ccccc2-c2nnn[nH]2)cc1 | 6.04
CCCCc1nc2cc(C)cc(C(=O)O)c2n1Cc1ccc(-c2ccccc2-c2nn[nH]n2)cc1 | 5.89
CCCCc1nc2cccc(O)c2n1Cc1ccc(-c2ccccc2-c2nn[nH]n2)cc1 | 5.96
CCCCc1nc2ccc(OC)cc2n1Cc1ccc(-c2ccccc2-c2nn[nH]n2)cc1 | 5.96
CCCCc1nc2cc(C)cc(C(=O)OC)c2n1Cc1ccc(-c2ccccc2-c2nn[nH]n2)cc1 | 6.06

# context switch: different compound, same pIC50
The value of pIC50 measured for the compound "CCCCc1nc2cc(C(=O)OC)ccc2n1Cc1ccc(-c2ccccc2-c2nn[nH]n2)cc1" turned out to be 6.13
